Value source: paper PMC3351444

Readings of max response for the listed compounds
biological target: human CMKLR1 (Homo sapiens, UniProt Q99788); construct: host or cells: HEK293A (Invitrogen), stably expressing human Gα15; test: Ca2+ mobilization (CellLux imaging) agonist assay in HEK293A cells expressing CMKLR1 and Gα15; format: cell-based; settings: Ca2+ mobilization, CMKLR1; decimal comma
Square brackets hold non-standard residues; d marks the D form. Peptide text beside a SMILES is read from it.

compound	assay system	max response
C[C@@H](NC(=O)[C@H](Cc1ccc(O)cc1)NC(=O)[C@H](CCC(N)=O)NC(=O)[C@H](N)Cc1ccccc1)C(=O)N[C@@H](CCC(N)=O)C(=O)N[C@@H](Cc1ccc(O)cc1)C(=O)N[C@H](Cc1c[nH]c2ccccc12)C(=O)N[C@@H](Cc1ccccc1)C(=O)N[C@H](CO)C(=O)O [compound 146] (H-[dF]QY[dA]QY[dW]F[dS]-OH; N-terminus assumed)	human CMKLR1 (Homo sapiens, UniProt Q99788)	1,49 DF/F0
CC(C)C[C@H](NC(=O)[C@@H](N)Cc1ccc(O)cc1)C(=O)N1CCC[C@H]1C(=O)NCC(=O)N[C@@H](CCC(N)=O)C(=O)N[C@@H](Cc1ccccc1)C(=O)N[C@@H](C)C(=O)N[C@H](Cc1ccccc1)C(=O)N[C@@H](Cc1ccccc1)C(=O)O [compound 42] (H-YLPGQFA[dF]F-OH; N-terminus assumed)	human CMKLR1 (Homo sapiens, UniProt Q99788)	1,07 DF/F0
CC(C)[C@H](NC(=O)[C@H](N)Cc1ccc(O)cc1)C(=O)N1CCC[C@H]1C(=O)NCC(=O)N[C@@H](CCC(N)=O)C(=O)N[C@@H](Cc1ccc(O)cc1)C(=O)N[C@@H](C)C(=O)N[C@@H](Cc1ccccc1)C(=O)N[C@@H](CO)C(=O)O [compound 91] (H-[dY]VPGQYAFS-OH; N-terminus assumed)	human CMKLR1 (Homo sapiens, UniProt Q99788)	1,58 DF/F0
CC(C)C[C@H](NC(=O)[C@@H](N)Cc1ccc(O)cc1)C(=O)N1CCC[C@H]1C(=O)NCC(=O)N[C@@H](CCC(N)=O)C(=O)N[C@@H](Cc1ccc(O)cc1)C(=O)N[C@@H](C)C(=O)N1CCC[C@@H]1C(=O)N[C@H](Cc1ccccc1)C(=O)O [compound 125] (H-YLPGQYA[dP][dF]-OH; N-terminus assumed)	human CMKLR1 (Homo sapiens, UniProt Q99788)	1,69 DF/F0
CC(C)C[C@H](NC(=O)[C@@H](N)Cc1ccc(O)cc1)C(=O)N1CCC[C@H]1C(=O)NCC(=O)N[C@@H](CCC(N)=O)C(=O)N[C@@H](Cc1ccc(O)cc1)C(=O)N[C@H](Cc1c[nH]c2ccccc12)C(=O)N[C@@H](Cc1ccccc1)C(=O)N[C@H](Cc1ccccc1)C(=O)O [compound 122] (H-YLPGQY[dW]F[dF]-OH; N-terminus assumed)	human CMKLR1 (Homo sapiens, UniProt Q99788)	1,54 DF/F0
CC(C)C[C@H](NC(=O)[C@@H](N)Cc1ccc(O)cc1)C(=O)N1CCC[C@H]1C(=O)NCC(=O)N[C@@H](CCC(N)=O)C(=O)N[C@@H](Cc1ccccc1)C(=O)N[C@H](Cc1ccccc1)C(=O)N[C@@H](Cc1ccccc1)C(=O)N[C@@H](CO)C(=O)O [compound 28] (H-YLPGQF[dF]FS-OH; N-terminus assumed)	human CMKLR1 (Homo sapiens, UniProt Q99788)	0,97 DF/F0

---

target: human CMKLR1 (Homo sapiens); construct: host or cells: HEK293A (Invitrogen), stably expressing human Gα15; experiment: Ca2+ mobilization (CellLux imaging) agonist assay in HEK293A cells expressing CMKLR1 and Gα15; type: cell-based; conditions: Ca2+ mobilization, CMKLR1; decimal comma; NR where no EC50 is given; read-out: EC50
Square brackets hold non-standard residues; d marks the D form. Peptide text beside a SMILES is read from it.
Readings of log10 of EC50 for the listed compounds
measure: log10 of EC50 (log10 of the value in nM)

compound	value measured
C[C@H](NC(=O)[C@H](Cc1ccccc1)NC(=O)[C@@H](CCC(N)=O)NC(=O)CNC(=O)[C@H](Cc1ccccc1)NC(=O)[C@H](C)NC(=O)[C@@H](N)Cc1ccccc1)C(=O)N[C@@H](Cc1ccccc1)C(=O)N[C@H](CO)C(=O)O [compound 114] (H-FAFG[dQ]FAF[dS]-OH; N-terminus assumed)	3.39
CC(C)C[C@H](NC(=O)[C@@H](N)Cc1ccc(O)cc1)C(=O)N1CCC[C@H]1C(=O)N[C@@H](Cc1ccc(O)cc1)C(=O)N1CCC[C@H]1C(=O)N[C@@H](Cc1ccc(O)cc1)C(=O)N1CCC[C@@H]1C(=O)N[C@@H](Cc1ccccc1)C(=O)N[C@H](Cc1ccccc1)C(=O)O [compound 147] (H-YLPYPY[dP]F[dF]-OH; N-terminus assumed)	2.32
NC(=O)CC[C@H](NC(=O)CNC(=O)[C@@H]1CCCN1C(=O)[C@H](Cc1ccccc1)NC(=O)[C@H](N)Cc1ccccc1)C(=O)N[C@@H](Cc1c[nH]c2ccccc12)C(=O)NCC(=O)N[C@@H](Cc1ccccc1)C(=O)N[C@@H](CO)C(N)=O [compound 12] (H-[dF]FPGQWGFS-NH2; N-terminus assumed)	3.48
CC(C)C[C@H](NC(=O)[C@@H](N)CC(C)C)C(=O)N[C@@H](Cc1ccc(O)cc1)C(=O)N[C@H](Cc1c[nH]c2ccccc12)C(=O)N1CCC[C@H]1C(=O)N[C@@H](Cc1ccc(O)cc1)C(=O)N[C@@H](C)C(=O)N[C@@H](CCCCN)C(=O)N[C@H](CO)C(=O)O [compound 144] (H-LLY[dW]PYAK[dS]-OH; N-terminus assumed)	2.16
CC(C)C[C@@H](NC(=O)[C@H](Cc1c[nH]cn1)NC(=O)[C@H](N)CO)C(=O)NCC(=O)N[C@@H](CCC(N)=O)C(=O)N[C@@H](Cc1ccc(O)cc1)C(=O)N[C@@H](C)C(=O)N[C@@H](Cc1ccccc1)C(=O)N[C@H](Cc1ccccc1)C(=O)O [compound 140] (H-[dS]H[dL]GQYAF[dF]-OH; N-terminus assumed)	2.02
CC[C@H](C)[C@H](NC(=O)CNC(=O)[C@@H]1CCCN1C(=O)[C@H](Cc1ccccc1)NC(=O)[C@@H](N)Cc1ccc(O)cc1)C(=O)N[C@@H](Cc1ccccc1)C(=O)N[C@@H](C)C(=O)N[C@H](Cc1ccccc1)C(=O)N[C@@H](CO)C(N)=O [compound 10] (H-YFPGIFA[dF]S-NH2; N-terminus assumed)	3.35

---

Biological target: human CMKLR1 (Homo sapiens, UniProt Q99788)
Construct: host or cells: HEK293A (Invitrogen), stably expressing human Gα15
Sequence (Q99788 1-373): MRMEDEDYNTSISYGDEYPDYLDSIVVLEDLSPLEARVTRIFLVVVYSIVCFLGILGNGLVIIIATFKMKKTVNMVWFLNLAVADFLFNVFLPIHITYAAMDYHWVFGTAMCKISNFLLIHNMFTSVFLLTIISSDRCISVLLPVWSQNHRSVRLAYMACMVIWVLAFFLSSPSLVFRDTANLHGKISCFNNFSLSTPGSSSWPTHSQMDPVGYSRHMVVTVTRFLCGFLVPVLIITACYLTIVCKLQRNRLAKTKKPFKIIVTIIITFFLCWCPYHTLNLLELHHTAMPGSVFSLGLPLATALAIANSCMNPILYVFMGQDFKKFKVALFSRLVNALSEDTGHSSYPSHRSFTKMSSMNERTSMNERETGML
Assay: Ca2+ mobilization (CellLux imaging) agonist assay in HEK293A cells expressing CMKLR1 and Gα15
Assay type: cell-based
Details: Ca2+ mobilization, CMKLR1; decimal comma
Ends that are not written are not given here.
measure: max response

>>> df
                      substance  value_measured
 0   FLPPQFAFF-OH [compound 73]      0,77 DF/F0
 1   YLPGQGAFK-OH [compound 69]      0,99 DF/F0
 2   FLPGQFLPG-OH [compound 63]      0,81 DF/F0
 3   YLPGYLPGH-OH [compound 77]      1,04 DF/F0
 4   PLPGQQAFF-OH [compound 79]       0,6 DF/F0
 5  YFPGYFAFG-NH2 [compound 11]      1,41 DF/F0
 6   PGPGQFAFF-OH [compound 59]       0,9 DF/F0
 7   YFLGQFAFK-OH [compound 76]      0,65 DF/F0
 8  FYPGQWAYS-NH2 [compound 20]      0,64 DF/F0
 9   FLPGQFAFK-OH [compound 67]      0,73 DF/F0
10   FLPGQYAFK-OH [compound 64]      0,93 DF/F0
11  WFPGQYAYS-NH2 [compound 23]      0,44 DF/F0
12   YLPGQYLFL-OH [compound 56]      0,57 DF/F0
13  FLFGFQFAY-OH [compound 109]       1,7 DF/F0
